system: GIST882 cell line; assay: Cancer cell cytotoxicity assay (sulforhodamine B); format: cell-based; details: Homo sapiens, 96 h; GIST882, 4 days; read-out: IC50 c-kit GIST882
# IC50 per entry
Record the value in µM, omitting the unit from your answer.

chem-smiles: COc1cc2[nH]c3ncnc(N4CCN(C(=S)NCc5ccc6c(c5)OCO6)CC4)c3c2cc1OC
unit-tag: µM
IC50: 0.45

chem-smiles: S=C(NCc1ccc2c(c1)OCO2)N1CCN(c2ncnc3c2oc2ccccc23)CC1
unit-tag: µM
IC50: 1.6

In: Query for GIST882 cell line: what IC50 does the record show for O=S(=O)(Nc1ncccn1)c1ccc(NC(=S)N2CCN(c3ncnc4c3oc3ccccc34)CC2)cc1 ?
Out: 27.5

====

Target: UniProt P52564
Sequence (P52564 1-334): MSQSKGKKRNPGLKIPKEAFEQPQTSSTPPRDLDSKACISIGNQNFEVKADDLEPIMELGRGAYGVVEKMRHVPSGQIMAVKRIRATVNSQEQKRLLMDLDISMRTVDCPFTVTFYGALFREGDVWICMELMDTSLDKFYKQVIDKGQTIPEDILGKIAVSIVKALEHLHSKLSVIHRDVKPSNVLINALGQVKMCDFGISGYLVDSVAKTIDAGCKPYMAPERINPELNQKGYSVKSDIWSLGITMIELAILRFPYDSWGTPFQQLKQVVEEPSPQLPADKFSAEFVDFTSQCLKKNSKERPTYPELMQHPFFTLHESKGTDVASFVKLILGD
measurement-kind: pIC50
pIC50 is a log-scale quantity: -log10 of the concentration expressed in molar.

In: Query for UniProt P52564: what pIC50 does the record show for COc1cc2[nH]c3ncnc(N4CCN(C(=S)Nc5ccc(S(=O)(=O)Nc6ncccn6)cc5)CC4)c3c2cc1OC ?
Out: 5.21

====

# pIC50 per entry
tested on: MIAPaCa-2 cells; test: Cancer cell cytotoxicity assay (sulforhodamine B); format: cell-based; details: Homo sapiens, MIA PaCa-2, 96 h; MIAPaCa-2, 4 days; read-out: IC50 PDGFR MIAPaCa
pIC50: −log10 of the molar value.

compound: COc1cc2[nH]c3ncnc(N4CCN(C(=S)Nc5ccc(S(=O)(=O)Nc6ncccn6)cc5)CC4)c3c2cc1OC [HPK62]
pIC50: < 4.30

compound: COc1cc2ncnc(N3CCN(C(=S)Nc4ccc(S(=O)(=O)Nc5ncccn5)cc4)CC3)c2cc1OC [HPK16]
pIC50: < 4.30

compound: S=C(NCc1ccc2c(c1)OCO2)N1CCN(c2ncnc3c2oc2ccccc23)CC1 [HPK56]
pIC50: 5.68

compound: O=S(=O)(Nc1ncccn1)c1ccc(NC(=S)N2CCN(c3ncnc4c3sc3ncccc34)CC2)cc1 [HPK60]
pIC50: < 4.30

Now for another entry.
In: Any idea what its pIC50 is? The compound is S=C(NCc1ccc2c(c1)OCO2)N1CCN(c2ncnc3c2sc2ncccc23)CC1 [HPK57]
Out: < 4.30

All values here come from patent US8552018B2.
